- target-desc: CA-IX (Homo sapiens, UniProt Q16790)
- Construct: His tag (C); purchased R&D Systems Inc. 2188-CA; host or cells: mouse myeloma cell line NS0
- assay-method-text: Binding affinity (Kd) determination for CA-IX inhibitors, DNSA fluorescence competition assay, Scatchard plots
- particulars: Table 3
readout-type: Kd (nM)

Known results for compounds:
- compound: "CC(C)[C@H](C(=O)N[C@H](Cc1ccc(OCC(O)CF)cc1)C(=O)O)n1cc(COc2ccc3nc(S(N)(=O)=O)sc3c2)nn1 (single isomer, unassigned) [VM4047b]"
  Kd, nM: 11
- compound: "NS(=O)(=O)c1nc2ccc(OCc3cn([C@@H](Cc4ccc(OCCF)cc4)C(=O)NCc4ccc(C(F)(F)F)cc4)nn3)cc2s1"
  Kd, nM: 3.4
- compound: "CC(C)[C@@H](C(=O)N[C@@H](Cc1ccc(C(F)(F)F)cc1)C(=O)O)n1cc(COc2ccc3nc(S(N)(=O)=O)sc3c2)nn1"
  Kd, nM: 0.5
- compound: "Cc1ccc(CNC(=O)[C@H](C(C)C)n2cc(COc3ccc4nc(S(N)(=O)=O)sc4c3)nn2)cc1F"
  Kd, nM: 12.5

a: CC(C)[C@@H](C(=O)N[C@@H](CC(=O)O)c1ccc(C(F)(F)F)cc1)n1cc(COc2ccc3nc(S(N)(=O)=O)sc3c2)nn1
b: NS(=O)(=O)c1ccc(-c2cn(Cn3nnc4ccccc43)nn2)cc1
c: CC(C)C(C(=O)NC(COCc1cccc(OCCO)c1)C(=O)O)n1cc(COc2ccc3nc(S(N)(=O)=O)sc3c2)nn1 (single isomer, unassigned) [VM3-165A]
// query Ordering criterion: Kd; begin with the maximum. Give the labels in the order specified.
// result b, c, a
